protocolSummary: Plasma concentration in Lewis rat at 0.3 mg/kg, po measured at 4 hrs
Assay type: ADME, organism-based
propertyLabel: concentration at 4 h

Lab book: concentration at 4 h of O=C(O)C1CN(Cc2ccc(-c3noc(-c4onc(-c5ccccc5)c4C(F)(F)F)n3)cc2)C1 noted as 180 nM

====

protocolSummary: Cmax in cynomolgus monkey at 5 mg/kg, po
Format: ADME, organism-based, Macaca fascicularis
Design: dose 5 mg/kg, route oral
protocolConditions: in vivo
propertyLabel: Cmax (µM)
Numbers only here, please. The scale is µM.

Lab book: Cmax of O=C(O)C1CN(Cc2ccc(-c3noc(-c4onc(-c5ccccc5)c4C(F)(F)F)n3)cc2)C1 noted as 4

====

Reported EC50 values are given for each entry in this list.
testSystem: Sphingosine 1-phosphate receptor 3 (Homo sapiens)
Sequence (Q99500 whole entry): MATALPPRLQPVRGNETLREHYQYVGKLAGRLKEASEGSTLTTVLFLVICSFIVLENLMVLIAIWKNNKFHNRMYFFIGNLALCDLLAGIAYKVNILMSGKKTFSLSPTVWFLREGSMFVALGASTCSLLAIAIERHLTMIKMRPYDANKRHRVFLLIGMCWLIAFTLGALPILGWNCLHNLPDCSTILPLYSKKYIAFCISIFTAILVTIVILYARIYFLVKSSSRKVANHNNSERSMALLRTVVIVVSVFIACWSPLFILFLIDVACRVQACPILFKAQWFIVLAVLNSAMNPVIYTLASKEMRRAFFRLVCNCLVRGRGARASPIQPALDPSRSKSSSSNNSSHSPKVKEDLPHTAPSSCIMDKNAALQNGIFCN
protocolSummary: Agonist activity at human S1P3 receptor expressed in EDG3-Ga15-bla HEK293T cell membranes after 45 mins by [35S]-GTPgammaS binding assay
Assay type: functional, HEK-293T
Numbers only here, please. The scale is nM.

Reference set (2 entries):
CC(C)(C)c1c(-c2nc(-c3ccc(CN4CC(C(=O)O)C4)cc3)no2)noc1-c1ccccc1    2600
O=C(O)C1CN(Cc2ccc(-c3noc(-c4noc(-c5ccccc5)c4C4CC4)n3)cc2)C1    1800

Lab book: EC50 of Cc1c(-c2ccccc2)noc1-c1nc(-c2ccc(CN3CC(C(=O)O)C3)cc2)no1 noted as 9200

Lab book: EC50 of CCCc1c(-c2ccccc2)noc1-c1nc(-c2ccc(CN3CC(C(=O)O)C3)cc2)no1 noted as 1000

Lab book: EC50 of CCCc1c(-c2nc(-c3ccc(CN4CC(C(=O)O)C4)cc3)no2)noc1-c1ccccc1 noted as 1300

Lab book: EC50 of CC(C)Cc1c(-c2nc(-c3ccc(CN4CC(C(=O)O)C4)cc3)no2)noc1-c1ccccc1 noted as 730

====

protocolSummary: Volume of distribution at steady state in cynomolgus monkey at 2 mg/kg, iv
Assay type: ADME, organism-based, Macaca fascicularis
protocolConditions: in vivo, read-out: Vdss
propertyLabel: Vd
Your answer should be a number followed by the unit of measure.

Lab book: Vd of O=C(O)C1CN(Cc2ccc(-c3noc(-c4onc(-c5ccccc5)c4C(F)(F)F)n3)cc2)C1 noted as 0.6 L/kg

====

testSystem: Cytochrome P450 2C8 (Homo sapiens, UniProt P10632)
Sequence (P10632 whole entry): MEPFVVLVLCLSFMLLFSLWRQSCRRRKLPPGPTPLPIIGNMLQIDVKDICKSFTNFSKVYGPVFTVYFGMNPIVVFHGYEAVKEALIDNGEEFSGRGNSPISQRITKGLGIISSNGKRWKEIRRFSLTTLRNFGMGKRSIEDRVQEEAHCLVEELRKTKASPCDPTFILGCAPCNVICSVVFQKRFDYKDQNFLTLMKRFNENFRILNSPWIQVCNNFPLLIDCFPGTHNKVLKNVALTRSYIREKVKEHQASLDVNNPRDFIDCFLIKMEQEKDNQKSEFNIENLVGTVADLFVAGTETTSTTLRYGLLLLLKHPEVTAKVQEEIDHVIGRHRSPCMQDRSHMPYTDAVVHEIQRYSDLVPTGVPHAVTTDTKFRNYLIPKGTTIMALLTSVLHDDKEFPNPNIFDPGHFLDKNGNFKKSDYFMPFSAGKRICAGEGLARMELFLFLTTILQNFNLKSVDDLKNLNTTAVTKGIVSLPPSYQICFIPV
protocolSummary: Inhibition of CYP2C8 (unknown origin)
Format: ADME
pIC50: −log10 of the molar value.
propertyLabel: pIC50

Lab book: pIC50 of O=C(O)C1CN(Cc2ccc(-c3noc(-c4onc(-c5ccccc5)c4C(F)(F)F)n3)cc2)C1 noted as < 4.40

====

protocolSummary: Oral bioavailability in dog at 1 mg/kg
Format: ADME, organism-based, Canis lupus familiaris
protocolConditions: in vivo
propertyLabel: bioavailability (%)
Numbers only here, please. The scale is %.

Lab book: bioavailability of O=C(O)C1CN(Cc2ccc(-c3noc(-c4onc(-c5ccccc5)c4C(F)(F)F)n3)cc2)C1 noted as 45

====

protocolSummary: Half life in cynomolgus monkey at 2 mg/kg, iv
Type: ADME, organism-based, Macaca fascicularis
protocolConditions: in vivo
propertyLabel: half-life (h)
Numbers only here, please. The scale is h.

Lab book: half-life of O=C(O)C1CN(Cc2ccc(-c3noc(-c4onc(-c5ccccc5)c4C(F)(F)F)n3)cc2)C1 noted as 3

====

protocolSummary: Half life in dog at 1 mg/kg, iv
Type: ADME, organism-based, Canis lupus familiaris
protocolConditions: in vivo
propertyLabel: half-life
Your answer should be a number followed by the unit of measure.

Lab book: half-life of O=C(O)C1CN(Cc2ccc(-c3noc(-c4onc(-c5ccccc5)c4C(F)(F)F)n3)cc2)C1 noted as 7.4 h

====

Tested on: Plasma
protocolSummary: Ratio drug level in Lewis rat plasma at 1 mg/kg, po at 4 hrs to drug level in Lewis rat plasma at 1 mg/kg, po at 24 hrs
Assay type: ADME, organism-based
protocolConditions: in vivo
Reported Ratio values are given for each entry in this list.
Lab note: jot the number down without any unit.

Reference set (3 entries):
CCCCc1c(-c2nc(-c3ccc(CN4CC(C(=O)O)C4)cc3)no2)noc1-c1ccccc1    16
CC(C)Cc1onc(-c2nc(-c3ccc(CN4CC(C(=O)O)C4)cc3)no2)c1C(F)(F)F    6
CC(F)(F)c1c(-c2nc(-c3ccc(CN4CC(C(=O)O)C4)cc3)no2)noc1-c1ccccc1    14

// Ratio (Plasma) for CC(C)(C)c1c(-c2nc(-c3ccc(CN4CC(C(=O)O)C4)cc3)no2)noc1-c1ccccc1 = 9

// Ratio (Plasma) for O=C(O)C1CN(Cc2ccc(-c3noc(-c4noc(-c5ccccc5)c4C(F)(F)F)n3)cc2)C1 = 6

// Ratio (Plasma) for CCc1c(-c2nc(-c3ccc(CN4CC(C(=O)O)C4)cc3)no2)noc1-c1ccccc1 = 11

// Ratio (Plasma) for Cc1c(-c2nc(-c3ccc(CN4CC(C(=O)O)C4)cc3)no2)noc1-c1ccccc1 = 41

// Ratio (Plasma) for CC(C)Cc1c(-c2nc(-c3ccc(CN4CC(C(=O)O)C4)cc3)no2)noc1-c1ccccc1 = 6

// Ratio (Plasma) for O=C(O)C1CN(Cc2ccc(-c3noc(-c4onc(-c5ccccc5)c4C(F)(F)F)n3)cc2)C1 = 3

// Ratio (Plasma) for CCCc1c(-c2nc(-c3ccc(CN4CC(C(=O)O)C4)cc3)no2)noc1CC(C)C = 33

// Ratio (Plasma) for CCCc1c(-c2nc(-c3ccc(CN4CC(C(=O)O)C4)cc3)no2)noc1-c1ccccc1 = 31

// Ratio (Plasma) for CCCc1c(-c2ccccc2)noc1-c1nc(-c2ccc(CN3CC(C(=O)O)C3)cc2)no1 = 15

====

protocolSummary: Cmax in rat at 5 mg/kg, po
Type: ADME, organism-based
Set-up: dose 5 mg/kg, route oral
protocolConditions: in vivo
propertyLabel: Cmax (µM)
Numbers only here, please. The scale is µM.

Lab book: Cmax of O=C(O)C1CN(Cc2ccc(-c3noc(-c4onc(-c5ccccc5)c4C(F)(F)F)n3)cc2)C1 noted as 3.9

====

protocolSummary: Tmax in cynomolgus monkey at 5 mg/kg, po
Assay type: ADME, organism-based, Macaca fascicularis
protocolConditions: in vivo
propertyLabel: Tmax (h)
Numbers only here, please. The scale is h.

Lab book: Tmax of O=C(O)C1CN(Cc2ccc(-c3noc(-c4onc(-c5ccccc5)c4C(F)(F)F)n3)cc2)C1 noted as 1

====

protocolSummary: Cmax in dog at 1 mg/kg, po
Format: ADME, organism-based, Canis lupus familiaris
Set-up: dose 1 mg/kg, route oral
protocolConditions: in vivo
propertyLabel: Cmax
Your answer should be a number followed by the unit of measure.

Lab book: Cmax of O=C(O)C1CN(Cc2ccc(-c3noc(-c4onc(-c5ccccc5)c4C(F)(F)F)n3)cc2)C1 noted as 1300 nM

====

testSystem: Voltage-gated inwardly rectifying potassium channel KCNH2 (Homo sapiens)
Sequence (Q12809 whole entry): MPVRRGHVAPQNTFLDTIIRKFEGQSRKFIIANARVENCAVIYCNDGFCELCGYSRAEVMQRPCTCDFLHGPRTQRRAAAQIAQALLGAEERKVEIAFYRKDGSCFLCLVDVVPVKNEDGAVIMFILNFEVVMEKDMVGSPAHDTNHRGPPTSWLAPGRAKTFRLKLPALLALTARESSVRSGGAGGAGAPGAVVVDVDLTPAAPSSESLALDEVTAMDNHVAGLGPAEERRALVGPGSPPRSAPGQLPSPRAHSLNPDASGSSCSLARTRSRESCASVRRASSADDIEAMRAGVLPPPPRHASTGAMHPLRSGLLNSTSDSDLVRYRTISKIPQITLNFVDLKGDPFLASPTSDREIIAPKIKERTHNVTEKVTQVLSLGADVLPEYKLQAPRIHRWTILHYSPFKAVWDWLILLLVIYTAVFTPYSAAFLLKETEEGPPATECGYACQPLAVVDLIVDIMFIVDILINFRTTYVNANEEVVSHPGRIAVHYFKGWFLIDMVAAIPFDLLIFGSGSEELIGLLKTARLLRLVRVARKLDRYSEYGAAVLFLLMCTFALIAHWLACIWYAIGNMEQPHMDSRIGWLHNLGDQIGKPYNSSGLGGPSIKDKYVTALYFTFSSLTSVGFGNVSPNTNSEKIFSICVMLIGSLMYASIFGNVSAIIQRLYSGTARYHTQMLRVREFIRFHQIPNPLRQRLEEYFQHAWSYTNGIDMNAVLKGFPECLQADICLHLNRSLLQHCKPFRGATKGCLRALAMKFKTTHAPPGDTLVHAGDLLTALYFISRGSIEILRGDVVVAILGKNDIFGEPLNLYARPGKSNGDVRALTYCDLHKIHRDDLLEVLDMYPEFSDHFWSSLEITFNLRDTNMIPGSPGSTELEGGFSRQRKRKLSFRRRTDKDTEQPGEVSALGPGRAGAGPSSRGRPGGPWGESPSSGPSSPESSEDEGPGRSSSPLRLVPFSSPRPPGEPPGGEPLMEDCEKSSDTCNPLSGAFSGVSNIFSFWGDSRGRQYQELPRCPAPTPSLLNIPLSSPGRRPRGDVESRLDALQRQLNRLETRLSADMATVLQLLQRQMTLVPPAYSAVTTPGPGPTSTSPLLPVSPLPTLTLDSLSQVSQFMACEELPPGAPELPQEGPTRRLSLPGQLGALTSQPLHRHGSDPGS
protocolSummary: Inhibition of human ERG by patch clamp method
propertyLabel: IC50
Your answer should be a number followed by the unit of measure.

// IC50 (Voltage-gated inwardly rectifying potassium channel KCNH2 (Homo sapiens)) for O=C(O)C1CN(Cc2ccc(-c3noc(-c4onc(-c5ccccc5)c4C(F)(F)F)n3)cc2)C1 = 18 µM

====

testSystem: Sphingosine 1-phosphate receptor 1 (Homo sapiens)
Sequence (P21453 whole entry): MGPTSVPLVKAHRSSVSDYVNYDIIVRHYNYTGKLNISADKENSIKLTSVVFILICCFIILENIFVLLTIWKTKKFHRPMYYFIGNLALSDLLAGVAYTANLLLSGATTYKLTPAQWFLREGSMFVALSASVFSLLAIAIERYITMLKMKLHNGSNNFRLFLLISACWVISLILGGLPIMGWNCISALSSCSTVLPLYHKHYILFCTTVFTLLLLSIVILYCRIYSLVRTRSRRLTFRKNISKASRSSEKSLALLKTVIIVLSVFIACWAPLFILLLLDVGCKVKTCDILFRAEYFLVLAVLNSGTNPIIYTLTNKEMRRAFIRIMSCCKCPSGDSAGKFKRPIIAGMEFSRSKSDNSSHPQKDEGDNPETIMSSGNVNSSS
protocolSummary: Agonist activity at human S1P1 receptor expressed in CHO cell membranes after 45 mins by [35S]-GTPgammaS binding assay
Assay type: functional
Reported EC50 values are given for each entry in this list.
Your answer should be a number followed by the unit of measure.

Reference set (6 entries):
O=C(O)C1CN(Cc2ccc(-c3noc(-c4noc(-c5ccccc5)c4C(F)(F)F)n3)cc2)C1    0.98 nM
CC(C)c1c(-c2nc(-c3ccc(CN4CC(C(=O)O)C4)cc3)no2)noc1-c1ccccc1    1.3 nM
Cc1c(-c2nc(-c3ccc(CN4CC(C(=O)O)C4)cc3)no2)noc1-c1ccccc1    5 nM
CCCc1c(-c2nc(-c3ccc(CN4CC(C(=O)O)C4)cc3)no2)noc1-c1ccccc1    0.44 nM
CC(C)Cc1onc(-c2nc(-c3ccc(CN4CC(C(=O)O)C4)cc3)no2)c1C(F)(F)F    0.39 nM
CC(F)(F)c1c(-c2nc(-c3ccc(CN4CC(C(=O)O)C4)cc3)no2)noc1-c1ccccc1    0.54 nM

// EC50 (Sphingosine 1-phosphate receptor 1 (Homo sapiens)) for O=C(O)C1CN(Cc2ccc(-c3noc(-c4cc(-c5ccccc5)on4)n3)cc2)C1 = 44 nM

// EC50 (Sphingosine 1-phosphate receptor 1 (Homo sapiens)) for O=C(O)C1CN(Cc2ccc(-c3noc(-c4cc(-c5ccccc5)no4)n3)cc2)C1 = 25 nM

// EC50 (Sphingosine 1-phosphate receptor 1 (Homo sapiens)) for CC(C)Cc1c(-c2nc(-c3ccc(CN4CC(C(=O)O)C4)cc3)no2)noc1-c1ccccc1 = 0.56 nM

// EC50 (Sphingosine 1-phosphate receptor 1 (Homo sapiens)) for CCCc1c(-c2nc(-c3ccc(CN4CC(C(=O)O)C4)cc3)no2)noc1CC(C)C = 0.3 nM

// EC50 (Sphingosine 1-phosphate receptor 1 (Homo sapiens)) for CCc1c(-c2nc(-c3ccc(CN4CC(C(=O)O)C4)cc3)no2)noc1-c1ccccc1 = 1.6 nM

// EC50 (Sphingosine 1-phosphate receptor 1 (Homo sapiens)) for CCCc1c(-c2ccccc2)noc1-c1nc(-c2ccc(CN3CC(C(=O)O)C3)cc2)no1 = 0.44 nM

// EC50 (Sphingosine 1-phosphate receptor 1 (Homo sapiens)) for O=C(O)C1CN(Cc2ccc(-c3noc(-c4noc(-c5ccccc5)c4C4CC4)n3)cc2)C1 = 3.2 nM

// EC50 (Sphingosine 1-phosphate receptor 1 (Homo sapiens)) for CC(C)(C)c1c(-c2nc(-c3ccc(CN4CC(C(=O)O)C4)cc3)no2)noc1-c1ccccc1 = 5.3 nM

// EC50 (Sphingosine 1-phosphate receptor 1 (Homo sapiens)) for Cc1c(-c2ccccc2)noc1-c1nc(-c2ccc(CN3CC(C(=O)O)C3)cc2)no1 = 1.7 nM

// EC50 (Sphingosine 1-phosphate receptor 1 (Homo sapiens)) for O=C(O)C1CN(Cc2ccc(-c3noc(-c4noc(-c5ccccc5)c4-c4ccccc4)n3)cc2)C1 = 0.99 nM

// EC50 (Sphingosine 1-phosphate receptor 1 (Homo sapiens)) for O=C(O)C1CN(Cc2ccc(-c3noc(-c4onc(-c5ccccc5)c4C(F)(F)F)n3)cc2)C1 = 0.47 nM
